# target.under.test: Strictosidine beta-glucosidase (Catharanthus roseus)
# measurement.protocol: Ratio of relative Vmax to K0.5 of Catharanthus roseus strictosidine glucosidase
observed.property: Ratio (min⁻¹)
Answers are plain numbers, in min⁻¹.

Example cases with answers are listed next.
- structure.as.smiles: "C=C[C@H]1[C@H](O[C@@H]2O[C@H](CO)[C@@H](O)[C@H](O)[C@H]2O)OC=C(C(=O)OC)[C@H]1C[C@@H]1NCCc2c1[nH]c1ccccc21"
  target.under.test: "Strictosidine beta-glucosidase (Catharanthus roseus)"
  Ratio / min⁻¹: 1
- structure.as.smiles: "C=C[C@H]1[C@H](O[C@@H]2O[C@H](CO)[C@@H](O)[C@H](O)[C@H]2O)OC=C(C(=O)OC)[C@H]1C[C@@H]1NCCc2c1[nH]c1cccc(C)c21"
  target.under.test: "Strictosidine beta-glucosidase (Catharanthus roseus)"
  Ratio / min⁻¹: 0.2
- structure.as.smiles: "C=C[C@H]1[C@H](O[C@@H]2O[C@H](CO)[C@@H](O)[C@H](O)[C@H]2O)OC=C(C(=O)OC)[C@H]1C[C@@H]1NCCc2c1[nH]c1cc(OC)ccc21"
  target.under.test: "Strictosidine beta-glucosidase (Catharanthus roseus)"
  Ratio / min⁻¹: 0.2
- structure.as.smiles: "C=C[C@H]1[C@H](O[C@@H]2O[C@H](CO)[C@@H](O)[C@H](O)[C@H]2O)OC=C(C(=O)OC)[C@H]1C[C@@H]1NCCc2c1[nH]c1ccc(OC)cc21"
  target.under.test: "Strictosidine beta-glucosidase (Catharanthus roseus)"
  Ratio / min⁻¹: 0.3
- structure.as.smiles: "C=C[C@H]1[C@H](O[C@@H]2O[C@H](CO)[C@@H](O)[C@H](O)[C@H]2O)OC=C(C(=O)OC)[C@H]1C[C@@H]1NCCc2c1[nH]c1ccc(C)cc21"
  target.under.test: "Strictosidine beta-glucosidase (Catharanthus roseus)"
  Ratio / min⁻¹: 0.6

Turning now to a further record.
Please fill in: Ratio reported for C=C[C@H]1[C@H](O[C@@H]2O[C@H](CO)[C@@H](O)[C@H](O)[C@H]2O)OC=C(C(=O)OC)[C@H]1C[C@@H]1NCCc2c1[nH]c1c(C)cccc21 = 0.3
